Kindly supply the reported Lym values for the records listed here.
- Species on record: Rattus norvegicus
- assay.notes: Open TG-GATES - Regimen: Single
- Type: toxicity, organism-based, Sprague-Dawley
- Design: regimen Single, gender Male, age 6 weeks
- run.parameters: in vivo, po, 1000 mg/kg, 6 h, tissue Blood, route gavage, dose level High
Give bare numbers, in %.

Each molecule below has a reported value. Please supply its Lym.
1. CNC(=C[N+](=O)[O-])NCCSCc1ccc(CN(C)C)o1
2. CN/C(=N/CCSCc1nc[nH]c1C)NC#N
3. Cc1nnc2n1-c1ccc(Cl)cc1C(c1ccccc1Cl)=NC2
4. O=C(OC[C@H]1O[C@@H](OC(=O)c2cc(O)c(O)c(OC(=O)c3cc(O)c(O)c(O)c3)c2)[C@H](OC(=O)c2cc(O)c(O)c(OC(=O)c3cc(O)c(O)c(O)c3)c2)[C@@H](OC(=O)c2cc(O)c(O)c(OC(=O)c3cc(O)c(O)c(O)c3)c2)[C@@H]1OC(=O)c1cc(O)c(O)c(OC(=O)c2cc(O)c(O)c(O)c2)c1)c1cc(O)c(O)c(OC(=O)c2cc(O)c(O)c(O)c2)c1

Marked response:
[72.8, 78, 75.8, 76.2]

Exam item: Any idea what Lym was measured for COC(=O)C1=C(C)NC(C)=C(C(=O)OC)C1c1ccccc1[N+](=O)[O-] ?
Marked response: 77
